Origin of values: patent US20220362396A1

Measured IC50 (TGFBR2 (Homo sapiens))

Consider `Nc1nc(-c2ccc(CCC(=O)N3CCN(C(=O)OCc4ccccc4)CC3)cc2)cnc1C(=O)Nc1cnccc1N1CCOCC1` . Its measured IC50 is < 50 nM

Consider `Nc1ncc(-c2ccc(Cl)c(Cl)c2)nc1C(=O)Nc1cnccc1N1CCOCC1` . Its measured IC50 is 100 to 1000 nM

Consider `Nc1ncc(-c2ccc(CCNC(=O)OCc3ccccc3)cc2)nc1C(=O)Nc1cnccc1-c1ccncc1F` . Its measured IC50 is < 50 nM

Consider `CC(C)(C)OC(=O)N[C@@H]1CCN(c2ccc(-c3cnc(N)c(C(=O)Nc4cnccc4N4CCOCC4)n3)cc2)C1` . Its measured IC50 is < 50 nM

----------
- assayed-target: TGFBR2 (Homo sapiens)
- Sequence (P37173 23-567): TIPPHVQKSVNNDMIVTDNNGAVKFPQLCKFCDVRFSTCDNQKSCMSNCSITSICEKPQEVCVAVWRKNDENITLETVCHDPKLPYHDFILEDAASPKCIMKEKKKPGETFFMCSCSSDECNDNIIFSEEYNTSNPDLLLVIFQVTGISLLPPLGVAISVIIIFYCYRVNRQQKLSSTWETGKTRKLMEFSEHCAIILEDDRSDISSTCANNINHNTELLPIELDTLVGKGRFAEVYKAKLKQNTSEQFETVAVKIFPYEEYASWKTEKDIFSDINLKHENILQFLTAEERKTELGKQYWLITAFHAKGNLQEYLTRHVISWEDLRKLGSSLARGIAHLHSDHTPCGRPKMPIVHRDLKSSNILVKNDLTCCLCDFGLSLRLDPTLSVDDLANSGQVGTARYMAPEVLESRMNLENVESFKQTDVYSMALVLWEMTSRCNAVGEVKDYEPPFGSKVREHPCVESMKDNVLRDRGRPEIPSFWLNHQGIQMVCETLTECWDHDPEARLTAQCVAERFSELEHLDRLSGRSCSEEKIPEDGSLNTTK
Each entry below lists one item and its recorded IC50 value.

Some entries whose results are on file:
Consider CN(CCNC(=O)OC(C)(C)C)c1ccc(-c2cnc(N)c(C(=O)Nc3cnccc3N3CCOCC3)n2)cc1 [Compound 267] . Its measured IC50 is < 50 nM

Consider CC(C)(C)OC(=O)N1CCN(c2ccc(-c3cnc(N)c(C(=O)Nc4cnccc4N4CCOCC4)n3)cc2)CC1 [Compound 71] . Its measured IC50 is < 50 nM

Consider NCCNc1ccc(-c2cnc(N)c(C(=O)Nc3cnccc3N3CCOCC3)n2)cc1 [Compound 271] . Its measured IC50 is < 50 nM

We next turn to a different compound, shown below.
Consider Nc1ncc(-c2cccc3ccccc23)nc1C(=O)Nc1cnccc1N1CCOCC1 [Compound 253] . Its measured IC50 is 100 to 1000 nM

----------
Measured pIC50 (TGFBR2 (Homo sapiens, UniProt P37173))
pIC50: −log10 of the molar value.

Some entries whose results are on file:
Record Nc1ncc(-c2ccc(Cl)cc2Cl)nc1C(=O)Nc1cnccc1N1CCOCC1 [Compound 153] ; system TGFBR2 (Homo sapiens, UniProt P37173); pIC50 = 6.00 to 7.00

Record CC1NCCc2cc(-c3cnc(N)c(C(=O)Nc4cnccc4N4CCOCC4)n3)ccc21 (stereo not drawn) [Compound 234] ; system TGFBR2 (Homo sapiens, UniProt P37173); pIC50 = > 7.30

Record N#Cc1ccccc1-c1ccncc1NC(=O)c1nc(-c2ccc(CCNC(=O)OCc3ccccc3)cc2)cnc1N [Compound 31] ; system TGFBR2 (Homo sapiens, UniProt P37173); pIC50 = < 6.00

Record COC(=O)[C@H](Cc1ccc(-c2cnc(N)c(C(=O)Nc3cnccc3N3CCOCC3)n2)cc1)NC(=O)OC(C)(C)C [Compound 200] ; system TGFBR2 (Homo sapiens, UniProt P37173); pIC50 = > 7.30

Record CC(C)[C@H](N)C(=O)N[C@@H](C)C(=O)NCc1ccc(-c2cnc(N)c(C(=O)Nc3cnccc3N3CCOCC3)n2)cc1 [Compound 108] ; system TGFBR2 (Homo sapiens, UniProt P37173); pIC50 = 7.00 to 7.30

New cases:
Record COC(=O)[C@H](CCOc1ccc(-c2cnc(N)c(C(=O)Nc3cnccc3N3CCOCC3)n2)cc1)NC(=O)OCc1ccccc1 [Compound 264] ; system TGFBR2 (Homo sapiens, UniProt P37173); pIC50 = > 7.30

Record Nc1ncc(-c2ccc(CCNC(=O)OCc3ccccc3)cc2)nc1C(=O)Nc1cnccc1-c1ccnnc1 [Compound 48] ; system TGFBR2 (Homo sapiens, UniProt P37173); pIC50 = > 7.30

Record Nc1ncc(-c2ccc(CCNC(=O)OCc3ccccc3)cc2)nc1C(=O)Nc1cnccc1-c1ccncn1 [Compound 49] ; system TGFBR2 (Homo sapiens, UniProt P37173); pIC50 = < 6.00

Record Nc1ncc(-c2ccc(CCNC(=O)OCc3ccccc3)cc2)nc1C(=O)Nc1cnccc1N1CCOCC1=O [Compound 35] ; system TGFBR2 (Homo sapiens, UniProt P37173); pIC50 = 6.00 to 7.00
